Test system: Escherichia coli TOP10;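 further: peptides expressed intracellularly from a pBAD plasmid library in pooled LB shake-flask culture, induced with 0.3% L-arabinose, DNA abundance read by NGS, three biological replicates, DESeq2 with apeglm shrinkage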
Test: shrunken log2 fold change of peptide-encoding DNA abundance (4.5 h post-induction vs induction); higher = less antimicrobial activity (less host growth inhibition)
Conditions: time post-induction: 4.5 h; library: site-saturation at positions 5, 18, 19, 20
Would you mind labelling by shrunken log2 fold change? At or over 0.04 is Satisfied, under is Not satisfied.

[
  {
    "SEQUENCE CODE": "RRIRPRPPRLPRPRPRPSSVPRP",
    "GROUP LABEL": "Satisfied"
  },
  {
    "SEQUENCE CODE": "RRIRQRPPRLPRPRPRPKHWPRP",
    "GROUP LABEL": "Satisfied"
  },
  {
    "SEQUENCE CODE": "RRIRGRPPRLPRPRPRPIPAPRP",
    "GROUP LABEL": "Satisfied"
  },
  {
    "SEQUENCE CODE": "RRIRYRPPRLPRPRPRPEGAPRP",
    "GROUP LABEL": "Satisfied"
  },
  {
    "SEQUENCE CODE": "RRIRGRPPRLPRPRPRPYHCPRP",
    "GROUP LABEL": "Not satisfied"
  },
  {
    "SEQUENCE CODE": "RRIRARPPRLPRPRPRPCTEPRP",
    "GROUP LABEL": "Not satisfied"
  },
  {
    "SEQUENCE CODE": "RRIRYRPPRLPRPRPRPQGCPRP",
    "GROUP LABEL": "Not satisfied"
  },
  {
    "SEQUENCE CODE": "RRIRFRPPRLPRPRPRPRIKPRP",
    "GROUP LABEL": "Not satisfied"
  },
  {
    "SEQUENCE CODE": "RRIRARPPRLPRPRPRPSEVPRP",
    "GROUP LABEL": "Satisfied"
  },
  {
    "SEQUENCE CODE": "RRIRQRPPRLPRPRPRPPKKPRP",
    "GROUP LABEL": "Not satisfied"
  },
  {
    "SEQUENCE CODE": "RRIRLRPPRLPRPRPRPDKKPRP",
    "GROUP LABEL": "Not satisfied"
  },
  {
    "SEQUENCE CODE": "RRIRTRPPRLPRPRPRPLPYPRP",
    "GROUP LABEL": "Not satisfied"
  },
  {
    "SEQUENCE CODE": "RRIRDRPPRLPRPRPRPTCGPRP",
    "GROUP LABEL": "Satisfied"
  },
  {
    "SEQUENCE CODE": "RRIRCRPPRLPRPRPRPCTAPRP",
    "GROUP LABEL": "Not satisfied"
  },
  {
    "SEQUENCE CODE": "RRIRSRPPRLPRPRPRPMWCPRP",
    "GROUP LABEL": "Satisfied"
  },
  {
    "SEQUENCE CODE": "RRIRSRPPRLPRPRPRPMHVPRP",
    "GROUP LABEL": "Not satisfied"
  },
  {
    "SEQUENCE CODE": "RRIRLRPPRLPRPRPRPFALPRP",
    "GROUP LABEL": "Satisfied"
  },
  {
    "SEQUENCE CODE": "RRIRVRPPRLPRPRPRPTMRPRP",
    "GROUP LABEL": "Satisfied"
  },
  {
    "SEQUENCE CODE": "RRIRLRPPRLPRPRPRPECGPRP",
    "GROUP LABEL": "Satisfied"
  },
  {
    "SEQUENCE CODE": "RRIRRRPPRLPRPRPRPPWIPRP",
    "GROUP LABEL": "Satisfied"
  },
  {
    "SEQUENCE CODE": "RRIRERPPRLPRPRPRPDWHPRP",
    "GROUP LABEL": "Not satisfied"
  },
  {
    "SEQUENCE CODE": "RRIRTRPPRLPRPRPRPNGSPRP",
    "GROUP LABEL": "Not satisfied"
  },
  {
    "SEQUENCE CODE": "RRIRGRPPRLPRPRPRPQVYPRP",
    "GROUP LABEL": "Satisfied"
  },
  {
    "SEQUENCE CODE": "RRIRTRPPRLPRPRPRPKEFPRP",
    "GROUP LABEL": "Not satisfied"
  },
  {
    "SEQUENCE CODE": "RRIRWRPPRLPRPRPRPEYVPRP",
    "GROUP LABEL": "Satisfied"
  },
  {
    "SEQUENCE CODE": "RRIRYRPPRLPRPRPRPRCVPRP",
    "GROUP LABEL": "Not satisfied"
  },
  {
    "SEQUENCE CODE": "RRIRQRPPRLPRPRPRPVRIPRP",
    "GROUP LABEL": "Not satisfied"
  },
  {
    "SEQUENCE CODE": "RRIRERPPRLPRPRPRPMKLPRP",
    "GROUP LABEL": "Not satisfied"
  },
  {
    "SEQUENCE CODE": "RRIRVRPPRLPRPRPRPTEGPRP",
    "GROUP LABEL": "Not satisfied"
  },
  {
    "SEQUENCE CODE": "RRIRIRPPRLPRPRPRPELPPRP",
    "GROUP LABEL": "Not satisfied"
  },
  {
    "SEQUENCE CODE": "RRIRTRPPRLPRPRPRPFAFPRP",
    "GROUP LABEL": "Not satisfied"
  },
  {
    "SEQUENCE CODE": "RRIRGRPPRLPRPRPRPENWPRP",
    "GROUP LABEL": "Satisfied"
  },
  {
    "SEQUENCE CODE": "RRIRVRPPRLPRPRPRPAMCPRP",
    "GROUP LABEL": "Not satisfied"
  },
  {
    "SEQUENCE CODE": "RRIRFRPPRLPRPRPRPLCYPRP",
    "GROUP LABEL": "Not satisfied"
  },
  {
    "SEQUENCE CODE": "RRIRIRPPRLPRPRPRPRNTPRP",
    "GROUP LABEL": "Not satisfied"
  },
  {
    "SEQUENCE CODE": "RRIRRRPPRLPRPRPRPGCSPRP",
    "GROUP LABEL": "Satisfied"
  },
  {
    "SEQUENCE CODE": "RRIRIRPPRLPRPRPRPAYIPRP",
    "GROUP LABEL": "Not satisfied"
  },
  {
    "SEQUENCE CODE": "RRIRQRPPRLPRPRPRPEWAPRP",
    "GROUP LABEL": "Satisfied"
  },
  {
    "SEQUENCE CODE": "RRIRFRPPRLPRPRPRPKMKPRP",
    "GROUP LABEL": "Not satisfied"
  },
  {
    "SEQUENCE CODE": "RRIRLRPPRLPRPRPRPNMVPRP",
    "GROUP LABEL": "Not satisfied"
  },
  {
    "SEQUENCE CODE": "RRIRARPPRLPRPRPRPRGGPRP",
    "GROUP LABEL": "Satisfied"
  },
  {
    "SEQUENCE CODE": "RRIRSRPPRLPRPRPRPPGQPRP",
    "GROUP LABEL": "Satisfied"
  },
  {
    "SEQUENCE CODE": "RRIRERPPRLPRPRPRPQWEPRP",
    "GROUP LABEL": "Not satisfied"
  },
  {
    "SEQUENCE CODE": "RRIRIRPPRLPRPRPRPNPMPRP",
    "GROUP LABEL": "Not satisfied"
  },
  {
    "SEQUENCE CODE": "RRIRDRPPRLPRPRPRPGRAPRP",
    "GROUP LABEL": "Satisfied"
  },
  {
    "SEQUENCE CODE": "RRIRKRPPRLPRPRPRPDYSPRP",
    "GROUP LABEL": "Not satisfied"
  },
  {
    "SEQUENCE CODE": "RRIRGRPPRLPRPRPRPECEPRP",
    "GROUP LABEL": "Satisfied"
  },
  {
    "SEQUENCE CODE": "RRIRVRPPRLPRPRPRPIHQPRP",
    "GROUP LABEL": "Not satisfied"
  },
  {
    "SEQUENCE CODE": "RRIRFRPPRLPRPRPRPPEVPRP",
    "GROUP LABEL": "Satisfied"
  },
  {
    "SEQUENCE CODE": "RRIRRRPPRLPRPRPRPTTDPRP",
    "GROUP LABEL": "Satisfied"
  },
  {
    "SEQUENCE CODE": "RRIRQRPPRLPRPRPRPQARPRP",
    "GROUP LABEL": "Not satisfied"
  },
  {
    "SEQUENCE CODE": "RRIRMRPPRLPRPRPRPVSLPRP",
    "GROUP LABEL": "Satisfied"
  },
  {
    "SEQUENCE CODE": "RRIRNRPPRLPRPRPRPGFFPRP",
    "GROUP LABEL": "Satisfied"
  },
  {
    "SEQUENCE CODE": "RRIRQRPPRLPRPRPRPQGRPRP",
    "GROUP LABEL": "Not satisfied"
  },
  {
    "SEQUENCE CODE": "RRIRHRPPRLPRPRPRPNDLPRP",
    "GROUP LABEL": "Satisfied"
  },
  {
    "SEQUENCE CODE": "RRIRSRPPRLPRPRPRPVWDPRP",
    "GROUP LABEL": "Not satisfied"
  },
  {
    "SEQUENCE CODE": "RRIRRRPPRLPRPRPRPIHKPRP",
    "GROUP LABEL": "Satisfied"
  },
  {
    "SEQUENCE CODE": "RRIRSRPPRLPRPRPRPYMGPRP",
    "GROUP LABEL": "Not satisfied"
  },
  {
    "SEQUENCE CODE": "RRIRLRPPRLPRPRPRPNIDPRP",
    "GROUP LABEL": "Not satisfied"
  },
  {
    "SEQUENCE CODE": "RRIRCRPPRLPRPRPRPHVQPRP",
    "GROUP LABEL": "Not satisfied"
  },
  {
    "SEQUENCE CODE": "RRIRKRPPRLPRPRPRPYGGPRP",
    "GROUP LABEL": "Not satisfied"
  },
  {
    "SEQUENCE CODE": "RRIRARPPRLPRPRPRPTIKPRP",
    "GROUP LABEL": "Satisfied"
  }
]

From: the supplement of paper PMC9112550
